Assay: Toxicity liver stage against HepG2, at 10uM
Format: cell-based
Design: test concentration 10 uM, cell line HepG2-A16-CD81EGFP
Details: human, HepG2-A16-CD81EGFP cells; read-out: INHIBITION
READOUT: cytotoxicity at 10 µM (%)
Record the value in %, omitting the unit from your answer.

The cases that follow already have their cytotoxicity at 10 µM on record.
Name the reported cytotoxicity at 10 µM value associated with the compound O=C(c1cn(-c2ccccc2)nn1)N1CCCC(n2cccn2)C1 (centres undefined)
-7.85

Name the reported cytotoxicity at 10 µM value associated with the compound CC(=O)NCC(=O)N1CCN(CC2CC2)c2ncccc2C1
0.359

Name the reported cytotoxicity at 10 µM value associated with the compound NC(=O)c1cnn2c(C3CCN(CCO)CC3)ccnc12
0.695

Name the reported cytotoxicity at 10 µM value associated with the compound CN(Cc1ccccc1)C1(C(=O)O)Cc2ccccc2C1
1.04

Name the reported cytotoxicity at 10 µM value associated with the compound CCc1nccn1C1CCCN(C(=O)c2csc(COC)n2)C1 (centres undefined)
-8.11

New cases:
Name the reported cytotoxicity at 10 µM value associated with the compound CN(C)C(=O)Cc1nc(CN2CCCCC2Cn2cccn2)cs1 (centres undefined)
6.04

Name the reported cytotoxicity at 10 µM value associated with the compound CS(=O)(=O)Nc1ccn(Cc2ccc(F)cc2Cl)n1
6.64

Name the reported cytotoxicity at 10 µM value associated with the compound CC(C)(C)c1noc(CCC(=O)NCC2CCS(=O)(=O)C2)n1 (centres undefined)
-18.1

Name the reported cytotoxicity at 10 µM value associated with the compound CCC[C@@H]1CN(C(=O)c2cc3ccccc3s2)C[C@H]1NS(C)(=O)=O
-9.53

Name the reported cytotoxicity at 10 µM value associated with the compound O=S(=O)(C1CC1)N1CC[C@]2(C[C@H](OCC3CCOCC3)CO2)C1
8.64

Name the reported cytotoxicity at 10 µM value associated with the compound COc1ccc(OC)c(CCNc2ncc(S(N)(=O)=O)s2)c1
3.75

Name the reported cytotoxicity at 10 µM value associated with the compound CC(C)CCN1CCN(C(=O)c2ccc(=O)[nH]n2)CC1
-6.96

Name the reported cytotoxicity at 10 µM value associated with the compound NC(=O)CCC1CCCN(Cc2cnc(N3CCCCC3)nc2)C1 (centres undefined)
-11.1

Name the reported cytotoxicity at 10 µM value associated with the compound O=C(NCCN1CCNCC1)c1nc2ccccc2c(=O)[nH]1
8.19

Name the reported cytotoxicity at 10 µM value associated with the compound Cc1cc2nc(C(C)C)cc(NC(C)c3nncn3C)n2n1 (centres undefined)
2.83

Name the reported cytotoxicity at 10 µM value associated with the compound CC[C@H]1CN2CC[C@H]1C[C@@H]2CNC(=O)Nc1ccc(Br)cc1
1.08

Name the reported cytotoxicity at 10 µM value associated with the compound CS(=O)(=O)CCNC(=O)Nc1sc2ccccc2c1Cl
41.7

Name the reported cytotoxicity at 10 µM value associated with the compound CN(Cc1cccnc1)[C@@H]1CN(Cc2ccccn2)[C@@H]2CCCO[C@H]12
-0.0545

Name the reported cytotoxicity at 10 µM value associated with the compound O=C(NC[C@]12COC[C@H]1CN(Cc1cccnc1)C2)c1ccno1
4.35

Name the reported cytotoxicity at 10 µM value associated with the compound N#Cc1ccccc1CN(CCO)Cc1ccsc1
18.4

Name the reported cytotoxicity at 10 µM value associated with the compound Cc1cnc(CN(C)C2CCN(Cc3ccc(Cl)s3)C2)o1 (centres undefined)
5.33

Name the reported cytotoxicity at 10 µM value associated with the compound Cc1c(Br)cc2c(c1C)OCC(N(C)C)C2=O (centres undefined)
-13.1

Name the reported cytotoxicity at 10 µM value associated with the compound CC(C)CN1Cc2cccc(NC(=O)Cc3ccon3)c2C1
4.86

Name the reported cytotoxicity at 10 µM value associated with the compound CCS(=O)(=O)c1ncc(CN2CCOCC2)n1CCCc1ccccc1
7.57
